In this section, each of the sequences is paired with its reported pKd.
- assayed-system: HLA-A*69:01
- assay-explanation: IEDB peptide-MHC binding, purified MHC/direct/fluorescence; filed as Kd, often an IC50 or EC50 that approximates it; bounds were set here for any values at or beyond the usual limits of such assays
- test-settings: source organism: Coxiella burnetii
pKd: −log10 of the molar value.

PEIRRWIIF :: ≤ 4.70
YHFDPVHHL :: ≤ 4.70

# sequence `VFFKQWFEK` ; its pKd = ≤ 4.70

====

- assayed-system: HLA-A*02:50
- assay-explanation: IEDB peptide-MHC binding, purified MHC/direct/fluorescence; filed as Kd, often an IC50 or EC50 that approximates it; bounds were set here for any values at or beyond the usual limits of such assays
- test-settings: source organism: Escherichia coli O157:H7 str. EC869
readout: Kd

Measured Kd of `ETIGLVRAL` : ≥ 20 µM

====

- assayed-system: HLA-B*58:01
- assay-explanation: IEDB peptide-MHC binding, purified MHC/direct/fluorescence; filed as Kd, often an IC50 or EC50 that approximates it; bounds were set here for any values at or beyond the usual limits of such assays
- test-settings: source organism: Influenza A virus (A/goose/Guangxi/1097/2004(H5N1))
readout: Kd

Fill in: HLA-B*58:01 Kd for `KYTSGRQEK` = ≥ 20 µM

====

- assayed-system: HLA-A*03:01
- assay-explanation: IEDB peptide-MHC binding, purified MHC/direct/fluorescence; filed as Kd, often an IC50 or EC50 that approximates it; bounds were set here for any values at or beyond the usual limits of such assays
- test-settings: source organism: Influenza A virus (A/Hong Kong/507/97(H5N1))
readout: Kd

In plain terms, `KSCLPACVY` has a documented Kd of ≥ 20 µM

====

- assayed-system: HLA-A*11:01
- assay-explanation: IEDB peptide-MHC binding, purified MHC/direct/fluorescence; filed as Kd, often an IC50 or EC50 that approximates it; bounds were set here for any values at or beyond the usual limits of such assays
- test-settings: source organism: Mammarenavirus lassaense
readout: pKd
API: returns pKd as number; meaning -log10 of concentration in mol/L.

The measured pKd associated with `RLKFSLSYK` reads 7.22

====

- assayed-system: HLA-B*46:01
- assay-explanation: IEDB peptide-MHC binding, purified MHC/direct/fluorescence; filed as Kd, often an IC50 or EC50 that approximates it; bounds were set here for any values at or beyond the usual limits of such assays
- test-settings: source organism: Mycobacterium avium 104
readout: Kd

Short answer on HLA-B*46:01 for `EHVQGDIDL` , Kd: ≥ 20 µM

====

- assayed-system: HLA-B*07:02
- assay-explanation: IEDB peptide-MHC binding, purified MHC/competitive/radioactivity; filed as Kd, often an IC50 or EC50 that approximates it; bounds were set here for any values at or beyond the usual limits of such assays
- test-settings: source organism: Vaccinia virus WR
readout: pKd
Note: pKd values are expressed as the negative base-10 logarithm of concentration in M.

HPLSINVSGV :: 5.42
IPFDDIVRTM :: 5.53
IPVDLVKSSF :: 7.69
VPEFAKQYVL :: 7.59
RPRFDDAYNI :: 8.28
NPDNTIAVI :: 6.63
TPEQKAYVPA :: 5.91
YPFYVSPTEM :: 5.69

Kindly note the recorded pKd for `KPKFCLIDGM` , which is 7.10

Entry `LPESDLDKV` ; pKd = 5.11

Given item `NPTSETMYL` , the value recorded as its pKd is 6.94
